The reported measurements were obtained from patent US20240051936A1.

molecular target: GSPT1 (Homo sapiens (Human), UniProt P15170+Q96SW2); assay: Immunofluorescence assay for GSPT1 degradation in CAL-Si cells; type: cell-based; settings: CAL-Si cells, treated 6 hours, read-out: Code, activity for GSPT1 degradation (DC50)
Sequence (P15170 whole entry): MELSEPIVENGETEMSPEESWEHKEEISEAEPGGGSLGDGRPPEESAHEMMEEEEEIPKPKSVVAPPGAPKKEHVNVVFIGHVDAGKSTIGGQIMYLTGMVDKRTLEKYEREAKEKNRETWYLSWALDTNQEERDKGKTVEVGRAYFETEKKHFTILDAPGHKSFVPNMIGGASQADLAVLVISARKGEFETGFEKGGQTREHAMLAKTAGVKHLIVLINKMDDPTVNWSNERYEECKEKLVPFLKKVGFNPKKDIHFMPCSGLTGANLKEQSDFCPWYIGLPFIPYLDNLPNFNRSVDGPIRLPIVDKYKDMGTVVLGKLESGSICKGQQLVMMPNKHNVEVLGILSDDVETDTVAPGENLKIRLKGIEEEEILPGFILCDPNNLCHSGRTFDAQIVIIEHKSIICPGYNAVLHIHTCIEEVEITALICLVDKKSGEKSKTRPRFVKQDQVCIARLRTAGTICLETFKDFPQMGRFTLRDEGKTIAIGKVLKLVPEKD
Sequence (Q96SW2 whole entry): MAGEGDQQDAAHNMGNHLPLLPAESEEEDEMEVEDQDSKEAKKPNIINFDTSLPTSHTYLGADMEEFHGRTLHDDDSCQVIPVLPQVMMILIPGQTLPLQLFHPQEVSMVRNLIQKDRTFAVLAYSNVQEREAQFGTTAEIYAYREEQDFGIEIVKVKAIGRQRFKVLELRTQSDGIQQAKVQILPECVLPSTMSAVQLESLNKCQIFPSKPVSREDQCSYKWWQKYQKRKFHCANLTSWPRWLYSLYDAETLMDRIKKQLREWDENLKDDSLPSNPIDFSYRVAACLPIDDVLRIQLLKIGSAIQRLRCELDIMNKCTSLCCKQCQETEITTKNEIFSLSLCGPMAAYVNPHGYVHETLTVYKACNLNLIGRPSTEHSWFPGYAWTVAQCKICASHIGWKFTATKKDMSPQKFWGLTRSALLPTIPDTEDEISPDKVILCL
Sequence (Q16531 whole entry partner): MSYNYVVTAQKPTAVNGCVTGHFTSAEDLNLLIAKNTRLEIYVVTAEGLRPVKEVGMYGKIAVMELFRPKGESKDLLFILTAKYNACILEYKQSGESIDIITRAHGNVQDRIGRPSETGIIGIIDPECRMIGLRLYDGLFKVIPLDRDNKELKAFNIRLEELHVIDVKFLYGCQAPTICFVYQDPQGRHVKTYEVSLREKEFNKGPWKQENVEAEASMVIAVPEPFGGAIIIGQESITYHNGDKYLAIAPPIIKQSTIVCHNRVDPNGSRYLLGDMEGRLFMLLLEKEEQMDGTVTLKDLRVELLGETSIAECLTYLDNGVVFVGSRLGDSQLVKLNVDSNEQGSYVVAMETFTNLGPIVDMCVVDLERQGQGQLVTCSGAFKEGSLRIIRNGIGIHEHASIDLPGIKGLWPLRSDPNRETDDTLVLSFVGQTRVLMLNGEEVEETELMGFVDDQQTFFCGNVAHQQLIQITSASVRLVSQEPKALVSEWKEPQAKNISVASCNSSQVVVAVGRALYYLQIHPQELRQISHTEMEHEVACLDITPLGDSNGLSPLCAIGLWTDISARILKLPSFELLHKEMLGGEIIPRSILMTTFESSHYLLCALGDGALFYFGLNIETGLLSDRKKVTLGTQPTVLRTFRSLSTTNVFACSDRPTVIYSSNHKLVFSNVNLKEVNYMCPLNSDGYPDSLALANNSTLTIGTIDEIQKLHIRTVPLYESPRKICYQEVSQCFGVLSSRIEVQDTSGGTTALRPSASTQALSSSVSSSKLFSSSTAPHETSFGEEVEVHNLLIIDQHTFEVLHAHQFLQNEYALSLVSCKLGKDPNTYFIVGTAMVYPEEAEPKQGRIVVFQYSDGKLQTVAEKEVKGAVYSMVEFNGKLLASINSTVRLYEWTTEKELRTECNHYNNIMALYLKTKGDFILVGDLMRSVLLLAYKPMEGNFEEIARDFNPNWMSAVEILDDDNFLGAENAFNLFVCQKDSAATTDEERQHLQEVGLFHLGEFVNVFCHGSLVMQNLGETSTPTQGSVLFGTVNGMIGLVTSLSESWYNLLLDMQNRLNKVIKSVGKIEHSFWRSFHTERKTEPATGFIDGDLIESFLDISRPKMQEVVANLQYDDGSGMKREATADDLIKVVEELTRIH
Reported DC50 values follow for various compounds

See these solved cases before continuing.
{"columns": ["compound", "reported.value"],
 "data": [
  ["COc1cc(COC(=O)Nc2cccc(C(C)(C)C)c2)cc2c1CN(C1CCC(=O)NC1=O)C2=O (centres unmarked)", "< 30 nM"],
  ["COc1cc(COC(=O)Nc2ccc(C3(C)CC3)cc2)cc2c1CN(C1CCC(=O)NC1=O)C2=O (centres unmarked)", "< 30 nM"],
  ["Cc1ccc(NC(=O)OCc2cc(C#N)c3c(c2)C(=O)N(C2CCC(=O)NC2=O)C3)cc1Cl (centres unmarked)", "30 to 300 nM"],
  ["COc1cc(COC(=O)Nc2cc(C)cc(C)c2)cc2c1CN(C1CCC(=O)NC1=O)C2=O (centres unmarked)", "30 to 300 nM"],
  ["COc1cc(COC(=O)Nc2ccc(F)c(Cl)c2)cc2c1CN(C1CCC(=O)NC1=O)C2=O (centres unmarked)", "30 to 300 nM"]
]}

Exam item: Please look up its DC50: Cc1ccc(NC(=O)OCc2cc(F)c3c(c2)C(=O)N(C2CCC(=O)NC2=O)C3)cc1Cl (centres unmarked)
Marked response: 30 to 300 nM

Exam item: Form field: reported DC50 of O=C1CCC(N2Cc3c(F)cc(COC(=O)Nc4cc(Cl)cc(Cl)c4)cc3C2=O)C(=O)N1 (centres unmarked)
Marked response: 30 to 300 nM

Exam item: Entry CC1CCCCN1c1ccc(NC(=O)OCc2cc(F)c3c(c2)C(=O)N(C2CCC(=O)NC2=O)C3)cn1 (centres unmarked) : reported DC50 = ?
Marked response: < 30 nM
